B1: SPOPL (parent)
chain: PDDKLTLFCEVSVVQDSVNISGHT

- Variants of: B1
- Procedure summary: protein stability index of a GFP-peptide fusion (GPS, HEK-293T) (PSI 1-6); higher = more stable;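 also: lentivirally expressed fusions sorted by FACS into six bins by GFP to DsRed ratio, PSI derived from sequencing read proportions per bin multiplied by bin number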
- Condition summary: c terminus: a fixed tail appended
Assay endpoint: protein stability index
Returns: the value as a bare number; no unit string appended.

Look over these answered cases.
1. H23E
3.21
2. P1C
1.93
3. C9N
4.34

Request: Identify the reported protein stability index for the following entry. `V13E`
Result: 4.61

Request: Tell me measured protein stability index for `V11D` please.
Result: 4.64

Request: Given `V14H` , respond with its protein stability index.
Result: 3.19

Request: Let me know recorded protein stability index for `S21C` , thanks.
Result: 1.5

Request: Tell me its protein stability index given `H23S` as the entry.
Result: 2.18
